# assayedSystem: Muscarinic M2 (Homo sapiens, UniProt P08172)
# Sequence (P08172 whole entry): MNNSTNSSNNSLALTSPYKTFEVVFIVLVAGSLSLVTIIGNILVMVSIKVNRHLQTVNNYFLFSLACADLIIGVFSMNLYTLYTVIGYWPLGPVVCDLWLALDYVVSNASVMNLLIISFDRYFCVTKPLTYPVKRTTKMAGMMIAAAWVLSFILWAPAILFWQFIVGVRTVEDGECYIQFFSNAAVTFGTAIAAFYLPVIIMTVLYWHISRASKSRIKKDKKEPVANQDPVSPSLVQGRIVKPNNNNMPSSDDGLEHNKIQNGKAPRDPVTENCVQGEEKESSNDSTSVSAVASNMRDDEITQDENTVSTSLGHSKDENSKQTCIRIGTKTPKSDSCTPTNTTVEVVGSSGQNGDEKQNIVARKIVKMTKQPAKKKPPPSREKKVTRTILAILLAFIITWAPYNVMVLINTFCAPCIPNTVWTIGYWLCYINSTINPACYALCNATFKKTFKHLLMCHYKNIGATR
# assayRemarks: Radioligand binding selectivity, Muscarinic M2
pKi: −log10 of the molar value.
measurementName: pKi

| molSmiles | assayedSystem | result |
| --- | --- | --- |
| O=C(O)C(O)C(O)C(=O)O.OCc1nn(-c2ncccc2F)cc1CN1CCC2(CC1)OCC(F)(F)c1cc(Cl)sc12 | Muscarinic M2 (Homo sapiens, UniProt P08172) | < 5.30 |

----------
# assayedSystem: D1 Dopamine (Homo sapiens)
# Sequence (P21728 whole entry): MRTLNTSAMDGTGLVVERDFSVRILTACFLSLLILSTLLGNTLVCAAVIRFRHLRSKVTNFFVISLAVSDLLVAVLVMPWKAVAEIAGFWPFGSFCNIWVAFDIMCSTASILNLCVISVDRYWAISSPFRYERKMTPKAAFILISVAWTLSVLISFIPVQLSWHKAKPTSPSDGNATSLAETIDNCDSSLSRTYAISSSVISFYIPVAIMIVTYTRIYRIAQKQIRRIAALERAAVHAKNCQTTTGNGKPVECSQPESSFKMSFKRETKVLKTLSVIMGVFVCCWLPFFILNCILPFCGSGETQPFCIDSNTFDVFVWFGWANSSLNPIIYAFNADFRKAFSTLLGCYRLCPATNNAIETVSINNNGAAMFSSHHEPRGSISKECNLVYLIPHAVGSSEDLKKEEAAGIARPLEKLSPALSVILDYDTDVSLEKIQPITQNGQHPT
# assayRemarks: Radioligand binding selectivity, D1 Dopamine
# measurementSetup: read-out: Ki D1 Dopamine
pKi: −log10 of the molar value.

| compound | pKi |
| --- | --- |
| Cc1nn(-c2ncccc2CO)cc1CN1CCC2(CC1)OCC(F)(F)c1cc(Cl)sc12 [Example 62] | < 5.30 |

----------
Collected pKi values appear next to each entry.
# assayedSystem: Ca+2 channel (diltiazem site)
# assayRemarks: Radioligand binding selectivity, Ca+2 channel (diltiazem site)
pKi: −log10 of the molar value.

| molSmiles | pKi |
| --- | --- |
| O=C(O)C(O)C(O)C(=O)O.OCc1nn(-c2ncccc2F)cc1CN1CCC2(CC1)OCC(F)(F)c1cc(Cl)sc12 | < 6.30 |
| Cc1nn(-c2ncccc2CO)cc1CN1CCC2(CC1)OCC(F)(F)c1cc(Cl)sc12 | < 6.30 |

----------
# assayedSystem: Adrenergic Beta2 (Homo sapiens, UniProt P07550)
# Sequence (P07550 whole entry): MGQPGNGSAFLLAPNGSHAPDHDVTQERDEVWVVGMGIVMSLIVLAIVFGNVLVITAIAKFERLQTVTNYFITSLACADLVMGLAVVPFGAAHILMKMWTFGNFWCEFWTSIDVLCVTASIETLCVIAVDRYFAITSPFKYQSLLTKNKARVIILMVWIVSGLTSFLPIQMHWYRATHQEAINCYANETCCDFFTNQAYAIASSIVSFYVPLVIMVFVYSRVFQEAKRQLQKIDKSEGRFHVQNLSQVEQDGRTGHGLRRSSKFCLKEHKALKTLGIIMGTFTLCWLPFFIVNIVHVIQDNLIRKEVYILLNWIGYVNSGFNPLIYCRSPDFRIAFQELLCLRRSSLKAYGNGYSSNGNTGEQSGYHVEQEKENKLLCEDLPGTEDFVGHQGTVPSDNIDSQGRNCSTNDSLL
pKi: −log10 of the molar value.

| molSmiles | pKi |
| --- | --- |
| O=C(O)C(O)C(O)C(=O)O.OCc1nn(-c2ncccc2F)cc1CN1CCC2(CC1)OCC(F)(F)c1cc(Cl)sc12 | < 5.30 |

----------
# assayedSystem: 5-HT2A (Homo sapiens)
# Sequence (P28223 whole entry, species assumed): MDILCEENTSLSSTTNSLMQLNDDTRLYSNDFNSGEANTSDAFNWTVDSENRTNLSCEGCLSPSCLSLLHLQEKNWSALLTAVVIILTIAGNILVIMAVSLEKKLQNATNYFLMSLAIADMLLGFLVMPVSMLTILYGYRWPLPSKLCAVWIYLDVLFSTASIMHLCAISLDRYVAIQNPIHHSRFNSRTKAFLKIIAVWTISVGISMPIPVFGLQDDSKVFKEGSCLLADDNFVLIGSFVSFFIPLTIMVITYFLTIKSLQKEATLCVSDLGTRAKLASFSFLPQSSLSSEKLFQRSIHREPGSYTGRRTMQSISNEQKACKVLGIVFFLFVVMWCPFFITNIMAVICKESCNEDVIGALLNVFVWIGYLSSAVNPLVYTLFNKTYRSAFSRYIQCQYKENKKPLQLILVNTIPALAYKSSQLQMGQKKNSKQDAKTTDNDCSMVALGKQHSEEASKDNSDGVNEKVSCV
# assayRemarks: Radioligand binding selectivity, 5-HT2A
# measurementSetup: read-out: Ki 5-HT2A
pKi: −log10 of the molar value.
measurementName: pKi

| compound | assayedSystem | measurementName | result |
| --- | --- | --- | --- |
| Cc1nn(-c2ncccc2CO)cc1CN1CCC2(CC1)OCC(F)(F)c1cc(Cl)sc12 [Example 62] | 5-HT2A (Homo sapiens) | pKi | < 5.30 |

----------
# assayedSystem: D2 Dopamine (Homo sapiens)
# assayRemarks: Radioligand binding selectivity, D2 Dopamine

| compound | assayedSystem | Ki |
| --- | --- | --- |
| O=C(O)C(O)C(O)C(=O)O.OCc1nn(-c2ncccc2F)cc1CN1CCC2(CC1)OCC(F)(F)c1cc(Cl)sc12 [Example 53] | D2 Dopamine (Homo sapiens) | > 5 µM |

----------
# assayedSystem: UniProt P23975
# Sequence (P23975 whole entry, species assumed): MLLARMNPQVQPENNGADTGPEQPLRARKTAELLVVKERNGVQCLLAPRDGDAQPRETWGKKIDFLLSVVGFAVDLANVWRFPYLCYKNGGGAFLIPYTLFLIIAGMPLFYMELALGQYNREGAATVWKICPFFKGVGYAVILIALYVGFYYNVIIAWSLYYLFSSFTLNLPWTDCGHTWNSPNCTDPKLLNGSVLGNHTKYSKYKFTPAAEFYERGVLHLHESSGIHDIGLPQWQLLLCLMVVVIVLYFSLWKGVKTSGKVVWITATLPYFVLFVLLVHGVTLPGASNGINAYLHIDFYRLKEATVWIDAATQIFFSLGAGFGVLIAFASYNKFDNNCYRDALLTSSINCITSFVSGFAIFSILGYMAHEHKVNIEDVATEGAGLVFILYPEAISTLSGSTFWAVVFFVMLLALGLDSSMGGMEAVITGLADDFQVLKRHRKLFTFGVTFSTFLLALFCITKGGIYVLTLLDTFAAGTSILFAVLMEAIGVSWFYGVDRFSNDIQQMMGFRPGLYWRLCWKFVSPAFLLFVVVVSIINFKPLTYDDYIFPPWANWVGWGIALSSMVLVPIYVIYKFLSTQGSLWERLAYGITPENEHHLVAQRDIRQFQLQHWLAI
# assayRemarks: Radioligand binding selectivity, Norepinephrine transporter
# measurementSetup: read-out: Ki Norepinephrine transporter
measurementName: Ki

| molSmiles | measurementName | result |
| --- | --- | --- |
| Cc1nn(-c2ncccc2CO)cc1CN1CCC2(CC1)OCC(F)(F)c1cc(Cl)sc12 | Ki | > 500 nM |

----------
# assayedSystem: 5-HT6 (Homo sapiens, UniProt P50406)

| molecule | Ki |
| --- | --- |
| O=C(O)C(O)C(O)C(=O)O.OCc1nn(-c2ncccc2F)cc1CN1CCC2(CC1)OCC(F)(F)c1cc(Cl)sc12 [Example 53] | > 5.83 µM |

----------
# assayedSystem: 5-HT1A (Homo sapiens)
# Sequence (P08908 1-422): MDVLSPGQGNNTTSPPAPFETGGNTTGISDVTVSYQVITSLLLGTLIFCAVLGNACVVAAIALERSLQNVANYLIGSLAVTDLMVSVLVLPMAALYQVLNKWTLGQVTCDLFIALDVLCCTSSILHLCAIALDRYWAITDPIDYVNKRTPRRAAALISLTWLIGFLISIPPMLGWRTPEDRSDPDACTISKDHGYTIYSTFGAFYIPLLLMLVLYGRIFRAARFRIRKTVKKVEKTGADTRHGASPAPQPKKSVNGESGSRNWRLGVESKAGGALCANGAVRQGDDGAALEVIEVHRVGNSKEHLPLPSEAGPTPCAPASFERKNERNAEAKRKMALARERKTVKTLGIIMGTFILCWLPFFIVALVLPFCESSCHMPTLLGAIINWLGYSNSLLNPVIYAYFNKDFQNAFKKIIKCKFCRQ
# assayRemarks: Radioligand binding selectivity, 5-HT1A
measurementName: Ki

| molSmiles | assayedSystem | result |
| --- | --- | --- |
| O=C(O)C(O)C(O)C(=O)O.OCc1nn(-c2ncccc2F)cc1CN1CCC2(CC1)OCC(F)(F)c1cc(Cl)sc12 | 5-HT1A (Homo sapiens) | > 3.18 µM |

----------
# assayedSystem: 5-HT2B (Homo sapiens)
# Sequence (P41595 whole entry, species assumed): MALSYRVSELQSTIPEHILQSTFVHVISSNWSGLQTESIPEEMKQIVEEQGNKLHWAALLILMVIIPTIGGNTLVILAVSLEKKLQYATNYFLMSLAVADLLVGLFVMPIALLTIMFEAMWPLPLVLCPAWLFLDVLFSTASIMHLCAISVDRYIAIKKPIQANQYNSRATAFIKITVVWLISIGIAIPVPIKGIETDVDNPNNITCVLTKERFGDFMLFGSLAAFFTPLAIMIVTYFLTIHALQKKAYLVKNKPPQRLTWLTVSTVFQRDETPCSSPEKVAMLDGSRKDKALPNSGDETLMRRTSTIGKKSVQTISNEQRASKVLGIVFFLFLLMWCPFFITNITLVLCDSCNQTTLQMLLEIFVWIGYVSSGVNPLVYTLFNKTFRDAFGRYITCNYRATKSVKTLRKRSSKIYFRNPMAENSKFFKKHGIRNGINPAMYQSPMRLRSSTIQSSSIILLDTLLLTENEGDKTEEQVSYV
# assayRemarks: Radioligand binding selectivity, 5-HT2B
# measurementSetup: read-out: Ki 5-HT2B
# Description: Similarly, Ki for the mu, kappa and delta opioids, serotonin, dopamine, adrenergic, mucarinic, and histamine receptors, as well as binding to the norepinephrine transporter, sodium channel, chloride channel, and calcium channel may be determined using membranes expressing the desired receptor/transporter/channels and appropriate corresponding radioligand competitor molecules.
pKi: −log10 of the molar value.
measurementName: pKi

| molecule | result |
| --- | --- |
| Cc1nn(-c2ncccc2CO)cc1CN1CCC2(CC1)OCC(F)(F)c1cc(Cl)sc12 [Example 62] | 6.16 |

----------
A collection of molecules and their measured pKi
# assayedSystem: Adrenergic Beta1 (Homo sapiens, UniProt P08588)
# Sequence (P08588 whole entry): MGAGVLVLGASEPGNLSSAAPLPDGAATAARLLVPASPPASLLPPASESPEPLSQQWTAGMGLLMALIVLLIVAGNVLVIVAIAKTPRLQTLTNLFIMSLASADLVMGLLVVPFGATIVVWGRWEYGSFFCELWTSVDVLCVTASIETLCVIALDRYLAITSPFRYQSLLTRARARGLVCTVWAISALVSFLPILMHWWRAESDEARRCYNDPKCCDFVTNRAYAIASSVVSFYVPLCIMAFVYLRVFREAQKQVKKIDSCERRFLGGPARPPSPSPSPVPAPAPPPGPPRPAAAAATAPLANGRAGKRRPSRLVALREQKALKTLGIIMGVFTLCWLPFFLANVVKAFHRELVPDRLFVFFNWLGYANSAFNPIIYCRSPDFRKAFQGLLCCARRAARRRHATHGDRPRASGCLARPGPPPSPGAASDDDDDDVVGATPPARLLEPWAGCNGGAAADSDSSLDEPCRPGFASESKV
pKi: −log10 of the molar value.
measurementName: pKi

| molSmiles | measurementName | result |
| --- | --- | --- |
| Cc1nn(-c2ncccc2CO)cc1CN1CCC2(CC1)OCC(F)(F)c1cc(Cl)sc12 | pKi | < 5.30 |
| O=C(O)C(O)C(O)C(=O)O.OCc1nn(-c2ncccc2F)cc1CN1CCC2(CC1)OCC(F)(F)c1cc(Cl)sc12 | pKi | < 5.30 |

----------
# assayedSystem: 5-HT2A (Homo sapiens)
# assayRemarks: Radioligand binding selectivity, 5-HT2A
pKi: −log10 of the molar value.
measurementName: pKi

| molSmiles | result |
| --- | --- |
| O=C(O)C(O)C(O)C(=O)O.OCc1nn(-c2ncccc2F)cc1CN1CCC2(CC1)OCC(F)(F)c1cc(Cl)sc12 | < 5.30 |

----------
# assayedSystem: 5-HT7 (Homo sapiens)
# assayRemarks: Radioligand binding selectivity, 5-HT7
pKi: −log10 of the molar value.
measurementName: pKi

| molecule | measurementName | result |
| --- | --- | --- |
| O=C(O)C(O)C(O)C(=O)O.OCc1nn(-c2ncccc2F)cc1CN1CCC2(CC1)OCC(F)(F)c1cc(Cl)sc12 [Example 53] | pKi | < 5.40 |

----------
# assayedSystem: 5-HT7 (Homo sapiens, UniProt P34969)
# Sequence (P34969 whole entry, species assumed): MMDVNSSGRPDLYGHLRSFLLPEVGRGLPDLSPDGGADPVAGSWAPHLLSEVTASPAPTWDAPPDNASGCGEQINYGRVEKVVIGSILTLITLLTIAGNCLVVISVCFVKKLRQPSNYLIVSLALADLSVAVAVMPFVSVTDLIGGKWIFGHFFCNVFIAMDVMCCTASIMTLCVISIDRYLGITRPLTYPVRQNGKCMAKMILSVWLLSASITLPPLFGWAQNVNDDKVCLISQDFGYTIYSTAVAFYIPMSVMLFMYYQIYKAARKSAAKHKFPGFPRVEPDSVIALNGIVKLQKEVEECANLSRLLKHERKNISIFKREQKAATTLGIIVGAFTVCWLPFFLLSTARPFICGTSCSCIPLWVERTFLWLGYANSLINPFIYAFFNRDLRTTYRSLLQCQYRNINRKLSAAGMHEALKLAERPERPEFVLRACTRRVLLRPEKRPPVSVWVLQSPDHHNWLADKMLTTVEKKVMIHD
# assayRemarks: Radioligand binding selectivity, 5-HT7
# measurementSetup: read-out: Ki 5-HT7

| molecule | assayedSystem | Ki |
| --- | --- | --- |
| Cc1nn(-c2ncccc2CO)cc1CN1CCC2(CC1)OCC(F)(F)c1cc(Cl)sc12 [Example 62] | 5-HT7 (Homo sapiens, UniProt P34969) | > 3.98 µM |

----------
# assayedSystem: Muscarinic M3 (Homo sapiens, UniProt P20309)
# Sequence (P20309 whole entry): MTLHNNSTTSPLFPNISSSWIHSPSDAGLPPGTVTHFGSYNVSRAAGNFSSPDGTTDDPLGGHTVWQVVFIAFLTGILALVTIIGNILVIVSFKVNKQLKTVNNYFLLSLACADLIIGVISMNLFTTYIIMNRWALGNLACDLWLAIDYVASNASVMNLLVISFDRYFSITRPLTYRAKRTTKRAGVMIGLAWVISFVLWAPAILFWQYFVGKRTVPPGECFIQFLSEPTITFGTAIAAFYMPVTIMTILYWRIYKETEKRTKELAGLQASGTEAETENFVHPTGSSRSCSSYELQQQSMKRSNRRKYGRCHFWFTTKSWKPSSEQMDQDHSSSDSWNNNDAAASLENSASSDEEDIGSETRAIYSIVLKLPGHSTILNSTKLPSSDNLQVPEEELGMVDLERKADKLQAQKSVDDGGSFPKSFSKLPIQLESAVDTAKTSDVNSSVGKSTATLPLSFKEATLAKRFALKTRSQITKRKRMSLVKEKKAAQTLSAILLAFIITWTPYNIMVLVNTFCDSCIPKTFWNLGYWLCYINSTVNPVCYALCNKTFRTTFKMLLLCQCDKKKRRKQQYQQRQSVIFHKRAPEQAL
# assayRemarks: Radioligand binding selectivity, Muscarinic M3
pKi: −log10 of the molar value.
measurementName: pKi

| molSmiles | result |
| --- | --- |
| O=C(O)C(O)C(O)C(=O)O.OCc1nn(-c2ncccc2F)cc1CN1CCC2(CC1)OCC(F)(F)c1cc(Cl)sc12 | < 5.30 |

----------
# assayedSystem: Adrenergic Alpha2
# assayRemarks: Radioligand binding selectivity, Adrenergic Alpha2
Some compounds, each annotated with its measured Ki.

| molSmiles | Ki |
| --- | --- |
| O=C(O)C(O)C(O)C(=O)O.OCc1nn(-c2ncccc2F)cc1CN1CCC2(CC1)OCC(F)(F)c1cc(Cl)sc12 | > 5 µM |
| Cc1nn(-c2ncccc2CO)cc1CN1CCC2(CC1)OCC(F)(F)c1cc(Cl)sc12 | > 5 µM |

----------
# assayedSystem: 5-HT2B (Homo sapiens)
# assayRemarks: Radioligand binding selectivity, 5-HT2B
# Description: Similarly, Ki for the mu, kappa and delta opioids, serotonin, dopamine, adrenergic, mucarinic, and histamine receptors, as well as binding to the norepinephrine transporter, sodium channel, chloride channel, and calcium channel may be determined using membranes expressing the desired receptor/transporter/channels and appropriate corresponding radioligand competitor molecules.
pKi: −log10 of the molar value.
measurementName: pKi

| molSmiles | result |
| --- | --- |
| O=C(O)C(O)C(O)C(=O)O.OCc1nn(-c2ncccc2F)cc1CN1CCC2(CC1)OCC(F)(F)c1cc(Cl)sc12 | 6.66 |

----------
# assayedSystem: UniProtKB P28566
# Sequence (P28566 whole entry, species assumed): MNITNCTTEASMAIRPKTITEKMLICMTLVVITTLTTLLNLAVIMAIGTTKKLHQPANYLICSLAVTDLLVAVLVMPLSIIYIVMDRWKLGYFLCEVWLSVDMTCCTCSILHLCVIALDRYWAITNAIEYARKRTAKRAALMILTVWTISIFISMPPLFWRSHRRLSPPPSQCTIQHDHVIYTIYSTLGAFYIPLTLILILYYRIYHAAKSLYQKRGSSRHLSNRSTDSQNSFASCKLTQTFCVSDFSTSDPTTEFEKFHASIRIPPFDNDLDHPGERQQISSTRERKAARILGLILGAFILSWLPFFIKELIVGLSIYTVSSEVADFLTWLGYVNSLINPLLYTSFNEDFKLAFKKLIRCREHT
# assayRemarks: Radioligand binding selectivity, 5-HT1E

| compound | Ki |
| --- | --- |
| O=C(O)C(O)C(O)C(=O)O.OCc1nn(-c2ncccc2F)cc1CN1CCC2(CC1)OCC(F)(F)c1cc(Cl)sc12 [Example 53] | > 5.37 µM |
